- Assay system: HIV reverse transcriptase (Human immunodeficiency virus type 1 group M subtype B)
- Assay method text: Reverse transcriptase scintillation proximity assay (Example 4, Table 2)
- Type: biochemical
- Settings: 0.05 h, 10 μM inhibitor; relative to dimethyl sulfoxide = 100%; read-out: % RT activity remaining at 10 μM
Experimental readout: remaining activity at 10 µM (%)
Numbers only, in %.

Some solved entries appear below for comparison.
[[record]]
compound = "O=C(Nc1ccc2c(O)cc(S(=O)(=O)O)cc2c1)Nc1cccc2ccc(S(=O)(=O)O)cc12 [Compound 10]"
test_value = 88

[[record]]
compound = "O=C(O)CCCCCc1ccc(N=Nc2c(S(=O)(=O)O)cc3cc(NC(=O)c4cc(=O)cc(C(=O)Nc5ccc6c(O)c(N=Nc7ccc(CCCCCC(=O)O)cc7)c(S(=O)(=O)O)cc6c5)o4)ccc3c2O)cc1 [Compound 135]"
test_value = 0.16


Task: State, in one line, measured remaining activity at 10 µM of O=C(O)Cc1ccc(N=Nc2c(S(=O)(=O)O)cc3cc(NC(=O)c4cc(=O)cc(C(=O)Nc5ccc6c(O)c(N=Nc7ccc(CC(=O)O)cc7)c(S(=O)(=O)O)cc6c5)o4)ccc3c2O)cc1 [Compound 133]
Output: 0.4
